Exercise: for every item that follows, state its recorded pKd.
target: PTPN3, P26045; test: holdup assay; parameters: key: below the threshold = too weak to quantify, mostly under pKd 3.1 to 4; conditions: plain residues with an end cap or a label only (N-terminal biotin on a linker: ttds)
Sequence (P26045 505-587): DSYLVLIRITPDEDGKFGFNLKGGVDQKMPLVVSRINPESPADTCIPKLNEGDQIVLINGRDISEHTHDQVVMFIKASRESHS
Answers are plain numbers.

Reference set (6 entries):
> print(dat)
                          binder  recorded.value
1  QRQARSETLV [HPV59-E6, Q81964]             4.4
2  SKPTRRETEV [HPV35-E6, P27228]            4.93
3    SSLQSLETSV [ATP2B4, P23634]            5.12
4    RLPKIKETTV [FRMPD4, Q14CM0]            4.89
5    VDFPPKESSL [ACVR2A, P27037]            4.87
6    FHPLGADSQV [SLC2A1, P11166]             4.1

Batch lookup, pKd per entry.
1. KKYVDAETSL [SLC4A7, Q9Y6M7]
2. RHTTSTETAV [HPV30-E6, P36809]

1. 5.04
2. 5.13
